biological target: EPHA1 (Homo sapiens); construct: purchased Thermo Fisher Scientific (SelectScreen service); assay: SelectScreen kinase selectivity assay; assay type: biochemical
Sequence (P21709 26-976): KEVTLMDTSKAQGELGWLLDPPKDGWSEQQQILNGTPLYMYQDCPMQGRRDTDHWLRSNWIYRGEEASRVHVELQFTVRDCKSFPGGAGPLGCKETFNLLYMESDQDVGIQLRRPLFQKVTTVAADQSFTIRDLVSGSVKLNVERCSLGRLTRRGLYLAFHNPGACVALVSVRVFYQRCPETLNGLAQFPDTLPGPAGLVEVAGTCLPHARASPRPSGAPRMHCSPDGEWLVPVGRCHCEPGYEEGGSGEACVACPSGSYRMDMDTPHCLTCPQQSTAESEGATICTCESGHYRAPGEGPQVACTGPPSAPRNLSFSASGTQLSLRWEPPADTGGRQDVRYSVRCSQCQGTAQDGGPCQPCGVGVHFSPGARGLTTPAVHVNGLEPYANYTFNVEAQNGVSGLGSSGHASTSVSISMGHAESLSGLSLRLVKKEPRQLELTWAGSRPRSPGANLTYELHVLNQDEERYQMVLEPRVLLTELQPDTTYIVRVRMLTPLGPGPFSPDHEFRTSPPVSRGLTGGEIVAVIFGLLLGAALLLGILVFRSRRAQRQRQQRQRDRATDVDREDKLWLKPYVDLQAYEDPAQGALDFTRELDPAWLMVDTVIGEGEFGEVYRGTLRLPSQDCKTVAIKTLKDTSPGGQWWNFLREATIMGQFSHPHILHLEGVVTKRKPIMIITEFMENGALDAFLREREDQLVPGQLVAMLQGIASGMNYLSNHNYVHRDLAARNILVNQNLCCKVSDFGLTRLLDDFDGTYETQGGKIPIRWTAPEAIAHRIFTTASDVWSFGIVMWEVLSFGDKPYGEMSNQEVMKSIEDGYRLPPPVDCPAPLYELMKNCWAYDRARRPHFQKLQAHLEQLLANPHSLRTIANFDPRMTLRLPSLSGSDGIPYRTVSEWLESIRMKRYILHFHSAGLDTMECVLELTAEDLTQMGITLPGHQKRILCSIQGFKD
reported-metric: IC50

Lookup: IC50 for Cc1ccc(O)c(C)c1-n1c(N)c(C(N)=O)c2cc(CCCCCC(=O)NO)c(C)nc21 ?
Found: > 50 µM

---

biological target: NTRK3 (Homo sapiens, UniProt Q16288); construct: purchased Thermo Fisher Scientific (SelectScreen service); test: SelectScreen kinase selectivity assay; assay type: biochemical
Sequence (Q16288 32-839): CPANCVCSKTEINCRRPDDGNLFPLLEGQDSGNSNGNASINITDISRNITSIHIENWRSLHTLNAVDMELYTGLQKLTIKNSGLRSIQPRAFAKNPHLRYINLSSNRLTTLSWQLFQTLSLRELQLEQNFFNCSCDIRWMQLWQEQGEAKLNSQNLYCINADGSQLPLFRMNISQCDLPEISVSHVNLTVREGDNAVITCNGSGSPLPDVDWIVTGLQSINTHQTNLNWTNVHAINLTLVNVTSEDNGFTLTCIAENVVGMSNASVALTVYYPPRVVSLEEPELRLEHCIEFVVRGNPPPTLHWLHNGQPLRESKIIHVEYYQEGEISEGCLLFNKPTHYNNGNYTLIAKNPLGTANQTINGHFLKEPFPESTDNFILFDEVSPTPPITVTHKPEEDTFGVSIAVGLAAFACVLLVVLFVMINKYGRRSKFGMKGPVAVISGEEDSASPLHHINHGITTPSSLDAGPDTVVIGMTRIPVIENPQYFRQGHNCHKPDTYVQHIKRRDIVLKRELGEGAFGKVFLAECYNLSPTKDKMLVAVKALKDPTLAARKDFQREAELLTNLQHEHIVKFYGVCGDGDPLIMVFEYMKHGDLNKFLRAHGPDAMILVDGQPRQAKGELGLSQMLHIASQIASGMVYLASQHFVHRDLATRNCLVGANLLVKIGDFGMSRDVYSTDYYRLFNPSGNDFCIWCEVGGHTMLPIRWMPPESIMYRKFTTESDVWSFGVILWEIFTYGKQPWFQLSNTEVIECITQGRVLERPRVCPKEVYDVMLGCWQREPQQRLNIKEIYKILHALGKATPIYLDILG
reported-metric: IC50

Lookup: IC50 for Cc1ccc(O)c(C)c1-n1c(N)c(C(N)=O)c2cc(CCCCCC(=O)NO)c(C)nc21 ?
Found: > 50 µM

---

target: LYN (Homo sapiens, UniProt P07948); construct: purchased Thermo Fisher Scientific (SelectScreen service); assay: SelectScreen kinase selectivity assay; type: biochemical
reported-metric: IC50

Lookup: IC50 for Cc1ccc(O)c(C)c1-n1c(N)c(C(N)=O)c2cc(CCCCCC(=O)NO)c(C)nc21 [PKHD-5] ?
Found: > 50 µM

---

biological target: EPHA4 (Homo sapiens); construct: purchased Thermo Fisher Scientific (SelectScreen service); assay: SelectScreen kinase selectivity assay; assay type: biochemical
Sequence (P54764 20-986): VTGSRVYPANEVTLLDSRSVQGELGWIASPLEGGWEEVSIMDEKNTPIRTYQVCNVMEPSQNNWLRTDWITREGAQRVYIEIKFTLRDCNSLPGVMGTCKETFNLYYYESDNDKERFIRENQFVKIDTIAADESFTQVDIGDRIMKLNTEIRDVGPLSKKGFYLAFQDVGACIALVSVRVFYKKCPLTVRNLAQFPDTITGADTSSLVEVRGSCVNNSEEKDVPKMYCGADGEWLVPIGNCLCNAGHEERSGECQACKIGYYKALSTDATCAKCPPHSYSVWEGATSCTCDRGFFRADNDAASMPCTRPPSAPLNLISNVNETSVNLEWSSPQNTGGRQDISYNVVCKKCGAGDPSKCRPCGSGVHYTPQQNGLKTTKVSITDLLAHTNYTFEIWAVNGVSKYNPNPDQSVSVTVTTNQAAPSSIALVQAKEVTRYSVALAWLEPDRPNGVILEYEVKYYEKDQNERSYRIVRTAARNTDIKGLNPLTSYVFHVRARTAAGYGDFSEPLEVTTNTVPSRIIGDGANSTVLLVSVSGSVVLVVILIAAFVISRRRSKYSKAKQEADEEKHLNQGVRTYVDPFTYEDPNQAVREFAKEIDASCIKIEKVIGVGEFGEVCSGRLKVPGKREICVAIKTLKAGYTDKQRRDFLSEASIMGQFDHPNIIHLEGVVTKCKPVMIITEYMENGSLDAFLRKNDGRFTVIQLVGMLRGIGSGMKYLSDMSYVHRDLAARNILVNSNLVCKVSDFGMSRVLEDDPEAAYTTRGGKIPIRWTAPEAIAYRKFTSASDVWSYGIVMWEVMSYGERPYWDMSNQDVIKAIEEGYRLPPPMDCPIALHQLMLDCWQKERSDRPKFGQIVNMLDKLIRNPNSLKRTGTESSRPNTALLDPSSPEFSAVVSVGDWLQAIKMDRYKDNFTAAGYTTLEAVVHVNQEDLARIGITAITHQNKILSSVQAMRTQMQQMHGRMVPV
reported-metric: IC50

Lookup: IC50 for Cc1ccc(O)c(C)c1-n1c(N)c(C(N)=O)c2cc(CCCCCC(=O)NO)c(C)nc21 ?
Found: > 50 µM

---

target: PTK2 (Homo sapiens); construct: purchased Thermo Fisher Scientific (SelectScreen service); assay: SelectScreen kinase selectivity assay; assay type: biochemical
reported-metric: IC50

Lookup: IC50 for Cc1ccc(O)c(C)c1-n1c(N)c(C(N)=O)c2cc(CCCCCC(=O)NO)c(C)nc21 ?
Found: > 50 µM

---

target: INSRR (Homo sapiens); construct: purchased Thermo Fisher Scientific (SelectScreen service); assay: SelectScreen kinase selectivity assay; format: biochemical
Sequence (P14616 27-1297): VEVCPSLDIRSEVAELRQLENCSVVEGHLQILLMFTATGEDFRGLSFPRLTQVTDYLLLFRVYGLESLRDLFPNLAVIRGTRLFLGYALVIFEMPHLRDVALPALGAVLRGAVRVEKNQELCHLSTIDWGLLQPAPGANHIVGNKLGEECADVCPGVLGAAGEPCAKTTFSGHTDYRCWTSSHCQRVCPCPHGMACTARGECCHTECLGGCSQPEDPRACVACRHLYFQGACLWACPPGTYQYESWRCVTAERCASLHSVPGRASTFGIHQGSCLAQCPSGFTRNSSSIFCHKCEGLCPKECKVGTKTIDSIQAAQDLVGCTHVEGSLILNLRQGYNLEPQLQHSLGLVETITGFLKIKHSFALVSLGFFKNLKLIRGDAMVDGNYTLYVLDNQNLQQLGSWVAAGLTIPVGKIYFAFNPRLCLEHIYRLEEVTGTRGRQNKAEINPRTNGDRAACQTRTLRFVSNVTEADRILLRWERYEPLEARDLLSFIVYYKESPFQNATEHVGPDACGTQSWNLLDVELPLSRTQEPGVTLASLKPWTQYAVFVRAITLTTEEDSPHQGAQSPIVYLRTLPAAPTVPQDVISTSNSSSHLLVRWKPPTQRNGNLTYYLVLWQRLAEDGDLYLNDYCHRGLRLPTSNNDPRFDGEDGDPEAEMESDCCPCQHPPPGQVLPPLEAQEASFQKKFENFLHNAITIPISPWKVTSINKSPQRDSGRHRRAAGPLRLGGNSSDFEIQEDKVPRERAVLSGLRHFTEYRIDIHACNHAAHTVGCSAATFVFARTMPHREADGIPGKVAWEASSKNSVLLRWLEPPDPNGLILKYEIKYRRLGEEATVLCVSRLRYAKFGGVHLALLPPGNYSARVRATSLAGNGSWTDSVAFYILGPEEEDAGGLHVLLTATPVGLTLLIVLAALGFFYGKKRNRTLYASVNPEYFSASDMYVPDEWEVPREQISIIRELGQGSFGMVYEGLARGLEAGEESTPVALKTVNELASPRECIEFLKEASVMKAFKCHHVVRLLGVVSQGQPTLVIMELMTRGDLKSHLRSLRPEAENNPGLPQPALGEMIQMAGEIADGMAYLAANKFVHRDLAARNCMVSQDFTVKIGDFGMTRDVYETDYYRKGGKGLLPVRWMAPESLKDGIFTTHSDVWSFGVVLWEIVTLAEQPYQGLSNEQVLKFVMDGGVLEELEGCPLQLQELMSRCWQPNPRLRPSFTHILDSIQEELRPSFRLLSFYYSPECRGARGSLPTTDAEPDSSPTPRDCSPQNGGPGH
reported-metric: IC50

Lookup: GET /values?readout=IC50&system=INSRR (Homo sapiens)&item= Cc1ccc(O)c(C)c1-n1c(N)c(C(N)=O)c2cc(CCCCCC(=O)NO)c(C)nc21
Found: > 50 µM

---

target: EPHB1 (Homo sapiens); construct: purchased Thermo Fisher Scientific (SelectScreen service); assay: SelectScreen kinase selectivity assay; type: biochemical
reported-metric: IC50

Lookup: IC50 for Cc1ccc(O)c(C)c1-n1c(N)c(C(N)=O)c2cc(CCCCCC(=O)NO)c(C)nc21 [PKHD-5] ?
Found: > 50 µM

---

biological target: ITK (Homo sapiens, UniProt Q08881); construct: purchased Thermo Fisher Scientific (SelectScreen service); assay: SelectScreen kinase selectivity assay; type: biochemical
Sequence (Q08881 whole entry): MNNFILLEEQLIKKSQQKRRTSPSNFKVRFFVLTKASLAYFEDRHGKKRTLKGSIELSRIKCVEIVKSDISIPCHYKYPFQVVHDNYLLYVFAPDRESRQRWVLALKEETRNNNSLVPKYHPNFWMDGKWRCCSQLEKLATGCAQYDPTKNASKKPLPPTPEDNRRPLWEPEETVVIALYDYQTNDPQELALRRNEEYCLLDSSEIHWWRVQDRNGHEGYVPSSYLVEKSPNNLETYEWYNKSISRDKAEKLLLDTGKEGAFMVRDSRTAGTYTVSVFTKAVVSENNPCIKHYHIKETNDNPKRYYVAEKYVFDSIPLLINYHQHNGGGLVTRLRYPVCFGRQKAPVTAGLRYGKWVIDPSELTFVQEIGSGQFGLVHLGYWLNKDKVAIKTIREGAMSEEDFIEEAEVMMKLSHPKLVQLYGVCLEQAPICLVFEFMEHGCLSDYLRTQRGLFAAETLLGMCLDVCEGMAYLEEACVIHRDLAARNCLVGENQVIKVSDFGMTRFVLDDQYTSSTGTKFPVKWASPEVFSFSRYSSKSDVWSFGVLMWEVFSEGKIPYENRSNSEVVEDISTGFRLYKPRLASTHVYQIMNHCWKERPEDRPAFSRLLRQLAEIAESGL
reported-metric: IC50

Lookup: IC50 for Cc1ccc(O)c(C)c1-n1c(N)c(C(N)=O)c2cc(CCCCCC(=O)NO)c(C)nc21 [PKHD-5] ?
Found: > 50 µM

---

tested on: Hep3B; assay: MTT assay; assay type: cell-based; conditions: Homo sapiens, 48 h, read-out: IC50 (μM) ± SD Hep3B
reported-metric: IC50 (µM)
Write it as a number; the unit µM goes unstated.

Lookup: GET /values?readout=IC50&system=Hep3B&item= Cc1ccc(O)c(C)c1-n1c(N)c(C(N)=O)c2cc(CCCCCC(=O)NO)c(C)nc21 [PKHD-5]
Found: 0.38

---

target: MST1R (Homo sapiens, UniProt Q04912); construct: purchased Thermo Fisher Scientific (SelectScreen service); test: SelectScreen kinase selectivity assay; type: biochemical
reported-metric: IC50

Lookup: IC50 for Cc1ccc(O)c(C)c1-n1c(N)c(C(N)=O)c2cc(CCCCCC(=O)NO)c(C)nc21 [PKHD-5] ?
Found: > 50 µM
